study target: RSV prefusion F (preF), DS-Cav1 (respiratory syncytial virus, UniProt P03420 26-513)
protocol summary: BLI, IgG on sensor, 100 nM antigen
endpoint name: Kd (nM)
Give bare numbers, in nM.

Some binders with known Kd results, for comparison:
binder: ADI-41360 (antibody, V domains shown, IgG1; also called Ab 657) VH: EVQLVESGGGLVQPGGSLRLSCAASGLTFSRYSMNWVRQAPGKGLEWVSYISSTGRRIQYADSVKGRFTISRDDGKNSLYLQMNSLRAEDTAVYYCARDPLNYHDNTAYWSYWGQGTLVTVSS VL: NFMLTQPHSVSESPGKTVTISCTRSSGSIASNYVQWYQQRPGSAPTTVIYEDNQRPSGVPDRFSGSIDSSSNSASLTISGLKTEDEADYYCQSYDSSNPLVFGGGTKLTVL
units symbol: nM
Kd: 2.46
//
binder: ADI-41367 (antibody, V domains shown, IgG1) VH: QVQLVQSGAAVKRPGASVKVSCKASGYTFSTNALHWVRQAPGQSLEWMGWINTDNGIPKYSERFHGRVTFTRDTSASTVYMDLSGLRSGDTAVYYCARDGSSGHWLGLSVLDNWGQGTLVTVSS VL: QSALIQPASVSGSPGQSITISCTGTSDDVGAYNYVSWYQQYPNKAPKLVIYEVSHRPSGVSNRFSGSKSGNTASLTISGLQAEDEADYYCSSYTRSATPYVFGTGTKLTVL
units symbol: nM
Kd: 17.6
//
binder: ADI-41443 (antibody, V domains shown, IgG1; also called Ab 727) VH: EVQLVESGGGVVQPGKSLRLSCAASGFTFSSYAMHWVRQAPGKGLEWVSVIWYEDSDKYYGDSVKGRFTISRDNSKNTLYLQMNSLRAEDTAVYYCARKSGGFGGLDYWGQGTLVTVSS VL: DIVMTQSPLSLPVTPGEPASISCKSSQSLLTANGYNYLDWYVQKPGQSPHVLISLGSNRASGVPDRFSGSGSGTDFTLKISRVEAEDVGVYYCMQAIETPITFGQGTRLEIK
units symbol: nM
Kd: 2.4

Count: 2. Required value per item: Kd.
1. ADI-41445 (antibody, V domains shown, IgG1) VH: QVQLVQSGAEVKRPGSSVKVSCKAFGGSFSNYAINWVRQAPGQGLEWMGGISPVLGTAIYAKRFQGKVTITADKFANTAYMDLSSLRFEDTAVYYCARSPPHVEFPLTKWFDPWGQGTLVTVSS VL: EIVMTQSPGTLSLSPGERATLSCRASQSVNSGYLAWYQHKPGRAPRLLIYGASNRATGVPDRFSGSGSGTDFTLTISRLEPEDFAVYYCQQYDNSLFTFGPGTKVDIK
2. ADI-41391 (antibody, V domains shown, IgG1) VH: EVQLLESGPGLVKPSETLSLTCTVSGGSISGYYWSWIRQPPGKGLEWIGYIYHSGGSTNYNPSLKSRVTISVDTSKNQFSLKVSSVTAADTAVYYCARLARVVTTFDFWGQGALVTVSS VL: QPVLTQPASVSGSPGQSITISCTGTSSDVGGYNYVSWYQQKPGTAPKLMIFDVSNRPSGVSNRFSGSKSDNTASLTISGLQAEDEADYYCSSYTSSTNLVFGGGTKLTVL

1. 3.04
2. 0.882
